# System: S. epidermidis C2235
# assay-procedure: Anti-microbial activity test in vitro (agar dilution MIC)
# Type: cell-based
# measurement-parameters: S. epidermidis C2235; Agar Dilution method, Mueller Hinton Agar, 18 hours at 37° C.
# Description: Anti-microbial activity test in vitro Strains were cultivated for 18 hours at 37° C. in Agar Dilution method using Mueller Hinton Agar, and then plane plates inoculated with the strains by diluting them two times gradually were aligned in a row. Minimum inhibition concentration (MIC, μg/ml) for the representative compounds of the present invention, Linezolid (LZD) and vancomycin (VAN) were decided through visual observation, and the results are shown in the following tables 2 and 3.
Reported Minimum inhibition concentration (MIC) values follow for various compounds
Give the value in µg/mL but do not write µg/mL after it.

Reference set (5 entries):
CC(=O)NC[C@H]1CN(c2ccc(N3CCC(=CC(C)OC(C)=O)CC3)c(F)c2)C(=O)O1 (some centres unmarked) :: 8
CC(=O)C=C1CCN(c2ccc(N3C[C@H](CNC(C)=O)OC3=O)cc2F)CC1 :: 8
CC(=O)NC[C@H]1CN(c2ccc(N3CCC(=Cc4cc(-c5csnc5C)no4)CC3)c(F)c2)C(=O)O1 :: 4
CC(=S)NC[C@H]1CN(c2ccc(N3CCC(=CC#N)CC3)c(F)c2)C(=O)O1 :: 0.5
CC(=O)NC[C@H]1CN(c2ccc(N3CCC(=C(C)C#N)CC3)c(F)c2)C(=O)O1 :: 2

Prompt: Return value of Minimum inhibition concentration (MIC) for input CC(=O)NC[C@H]1CN(c2ccc(N3CCC(=CC(C)OC(=O)CCl)CC3)c(F)c2)C(=O)O1 (some centres unmarked) , no commentary.
Completion: 8

Prompt: Give reported Minimum inhibition concentration (MIC) value for CON=CC=C1CCN(c2ccc(N3C[C@H](CNC(C)=O)OC3=O)cc2F)CC1
Completion: 2

Prompt: Specify Minimum inhibition concentration (MIC) for CC(=O)NC[C@H]1CN(c2ccc(N3CCC(=CC(C)=NO)CC3)c(F)c2)C(=O)O1 and stop.
Completion: 4

###

# System: MSSA C2214
# assay-procedure: Anti-microbial activity test in vitro (agar dilution MIC)
# Assay type: cell-based, Staphylococcus aureus
# measurement-parameters: MSSA C2214; Agar Dilution method, Mueller Hinton Agar, 18 hours at 37° C.
Property: Minimum inhibition concentration (MIC); scope: individual molecules
Give just the numeric value; µg/mL need not be written.

# count of solved cases: 2
CCOC(=O)C(C)=C1CCN(c2ccc(N3C[C@H](CNC(C)=O)OC3=O)cc2F)CC1 [Compound 13] :: 16
CC(=O)NC[C@H]1CN(c2ccc(N3CCC(=CC(C)=NO)CC3)c(F)c2)C(=O)O1 [Compound 20] :: 8

Prompt: Provide Minimum inhibition concentration (MIC), system MSSA C2214, entry CC(=O)NC[C@H]1CN(c2ccc(N3CCC(=CC(C)OC(=O)C(Cl)Cl)CC3)c(F)c2)C(=O)O1 (stereo partly shown) [Compound 25]
Completion: 16

Prompt: Provide the reported Minimum inhibition concentration (MIC) (system: MSSA C2214) for CC(=O)NC[C@H]1CN(c2ccc(N3CCC(=CC(=O)O)CC3)c(F)c2)C(=O)O1 [Compound 14]
Completion: 8

###

The reader will find reported Minimum inhibition concentration (MIC) values listed item by item below.
# Test system: MSSA C2214
# assay-procedure: Anti-microbial activity test in vitro (agar dilution MIC)
# Type: cell-based, Staphylococcus aureus
# measurement-parameters: MSSA C2214; Agar Dilution method, Mueller Hinton Agar, 18 hours at 37° C.
Response body: numeric value in µg/mL, unit text excluded.

CON=CC=C1CCN(c2ccc(N3C[C@H](CNC(C)=O)OC3=O)cc2F)CC1 :: 8

Prompt: Annotate the molecule CCOC(=O)C(C#N)=C1CCN(c2ccc(N3C[C@H](CNC(C)=O)OC3=O)cc2F)CC1 with its measured Minimum inhibition concentration (MIC).
Completion: 4

Prompt: Fill in Minimum inhibition concentration (MIC) for record CC(=S)NC[C@H]1CN(c2ccc(N3CCC(=CC#N)CC3)c(F)c2)C(=O)O1
Completion: 2

Prompt: Note Minimum inhibition concentration (MIC) for the molecule shown: CON=C(C)C=C1CCN(c2ccc(N3C[C@H](CNC(C)=O)OC3=O)cc2F)CC1
Completion: 16

###

Measured Minimum inhibition concentration (MIC), listed per entry.
# Tested on: VRE C6488
# assay-procedure: Anti-microbial activity test in vitro (agar dilution MIC)
# Assay type: cell-based, Enterococcus faecium
# measurement-parameters: VRE C6488; Agar Dilution method, Mueller Hinton Agar, 18 hours at 37° C.
Write the answer as a number in µg/mL, unit excluded.

CC(=O)NC[C@H]1CN(c2ccc(N3CCC(=CC(=O)O)CC3)c(F)c2)C(=O)O1 :: 8
CC(=O)NC[C@H]1CN(c2ccc(N3CCC(=CC(C)OC(=O)CCl)CC3)c(F)c2)C(=O)O1 (stereo partly shown) :: 4
CC(=O)NC[C@H]1CN(c2ccc(N3CCC(=CC=O)CC3)c(F)c2)C(=O)O1 :: 8

# input for lookup
Prompt: Return reported Minimum inhibition concentration (MIC) for target or system VRE C6488, item CC(=O)NC[C@H]1CN(c2ccc(N3CCC(=Cc4cc(-c5csnc5C)no4)CC3)c(F)c2)C(=O)O1 .
Completion: 8

###

# System: S. epidermidis C2235
# assay-procedure: Anti-microbial activity test in vitro (agar dilution MIC)
# Assay type: cell-based
# measurement-parameters: S. epidermidis C2235; Agar Dilution method, Mueller Hinton Agar, 18 hours at 37° C.
# Protocol: Anti-microbial activity test in vitro Strains were cultivated for 18 hours at 37° C. in Agar Dilution method using Mueller Hinton Agar, and then plane plates inoculated with the strains by diluting them two times gradually were aligned in a row. Minimum inhibition concentration (MIC, μg/ml) for the representative compounds of the present invention, Linezolid (LZD) and vancomycin (VAN) were decided through visual observation, and the results are shown in the following tables 2 and 3.
property-measured: Minimum inhibition concentration (MIC) (µg/mL)
Express your answer in µg/mL, writing the number without its unit.

Solved entries (count: 5):
CCOC(=O)C=C1CCN(c2ccc(N3C[C@H](CNC(C)=O)OC3=O)cc2F)CC1 [Compound 11] :: 4
CC(=O)NC[C@H]1CN(c2ccc(N3CCC(=CC#N)CC3)c(F)c2)C(=O)O1 [Compound 8] :: 1
CC(=O)NC[C@H]1CN(c2ccc(N3CCC(=Cc4cc(-c5cccs5)no4)CC3)c(F)c2)C(=O)O1 [Compound 9] :: 8
CC(=O)NC[C@H]1CN(c2ccc(N3CCC(=CC(C)O)CC3)c(F)c2)C(=O)O1 (some centres unmarked) [Compound 22] :: 4
CCOC(=O)C(C)=C1CCN(c2ccc(N3C[C@H](CNC(C)=O)OC3=O)cc2F)CC1 [Compound 13] :: 8

Prompt: Please list Minimum inhibition concentration (MIC) recorded for the molecule CON=C(C)C=C1CCN(c2ccc(N3C[C@H](CNC(C)=O)OC3=O)cc2F)CC1 [Compound 21]
Completion: 8

Prompt: For the molecule CC(=O)NC[C@H]1CN(c2ccc(N3CCC(=CC=O)CC3)c(F)c2)C(=O)O1 [Compound 17] , report Minimum inhibition concentration (MIC).
Completion: 2

Prompt: Supply reported Minimum inhibition concentration (MIC) belonging to this molecule: CC(=O)NC[C@H]1CN(c2ccc(N3CCC(=CC(=O)O)CC3)c(F)c2)C(=O)O1 [Compound 14]
Completion: 1

###

# System: CRSA C1062
# assay-procedure: Anti-microbial activity test in vitro (agar dilution MIC)
# Format: cell-based, Staphylococcus aureus
# measurement-parameters: CRSA C1062; Agar Dilution method, Mueller Hinton Agar, 18 hours at 37° C.
property-measured: Minimum inhibition concentration (MIC) (µg/mL)
State the answer as a number, implicitly in µg/mL.

Study these solved cases before continuing.
CC(=O)NC[C@H]1CN(c2ccc(N3CCC(=CC(C)=NO)CC3)c(F)c2)C(=O)O1 :: 8
CC(=O)C=C1CCN(c2ccc(N3C[C@H](CNC(C)=O)OC3=O)cc2F)CC1 :: 8
CCOC(=O)C(C#N)=C1CCN(c2ccc(N3C[C@H](CNC(C)=O)OC3=O)cc2F)CC1 :: 4
CC(=O)NC[C@H]1CN(c2ccc(N3CCC(=CC(C)O)CC3)c(F)c2)C(=O)O1 (some centres unmarked) :: 16
CC(=O)NC[C@H]1CN(c2ccc(N3CCC(=CC(C)OC(=O)C(Cl)Cl)CC3)c(F)c2)C(=O)O1 (some centres unmarked) :: 16

Prompt: Please supply the value of reported Minimum inhibition concentration (MIC) for the item CC(=O)NC[C@H]1CN(c2ccc(N3CCC(=Cc4cc(-c5cccs5)no4)CC3)c(F)c2)C(=O)O1
Completion: 32

Prompt: Supply reported Minimum inhibition concentration (MIC) belonging to this molecule: CC(=O)NC[C@H]1CN(c2ccc(N3CCC(=CC=O)CC3)c(F)c2)C(=O)O1
Completion: 8

Prompt: Query Minimum inhibition concentration (MIC) for CC(=O)NC[C@H]1CN(c2ccc(N3CCC(=CC(C)OC(=O)CCl)CC3)c(F)c2)C(=O)O1 (some centres unmarked)
Completion: 8

Prompt: Please report Minimum inhibition concentration (MIC) for the following molecule: CC(=O)NC[C@H]1CN(c2ccc(N3CCC(=C(C)C#N)CC3)c(F)c2)C(=O)O1
Completion: 2

Prompt: Determine from records and report Minimum inhibition concentration (MIC) for CON=CC=C1CCN(c2ccc(N3C[C@H](CNC(C)=O)OC3=O)cc2F)CC1
Completion: 4

Prompt: In one line, give reported Minimum inhibition concentration (MIC) of the entry CC(=O)NC[C@H]1CN(c2ccc(N3CCC(=CC(C)OC(C)=O)CC3)c(F)c2)C(=O)O1 (some centres unmarked) .
Completion: 16

Prompt: Query Minimum inhibition concentration (MIC) for CC(=O)NC[C@H]1CN(c2ccc(N3CCC(=Cc4cc(-c5csnc5C)no4)CC3)c(F)c2)C(=O)O1
Completion: 16

Prompt: Kindly indicate its recorded Minimum inhibition concentration (MIC). Item: CC(=O)NC[C@H]1CN(c2ccc(N3CCC(=CC#N)CC3)c(F)c2)C(=O)O1
Completion: 2

Prompt: Quickly give me recorded Minimum inhibition concentration (MIC) for CC(=O)NC[C@H]1CN(c2ccc(N3CCC(=CC(=O)O)CC3)c(F)c2)C(=O)O1
Completion: 16

Prompt: Identify Minimum inhibition concentration (MIC) associated with the molecule CCOC(=O)C(C)=C1CCN(c2ccc(N3C[C@H](CNC(C)=O)OC3=O)cc2F)CC1
Completion: 16

Prompt: Supply measured Minimum inhibition concentration (MIC) of CC(=O)NC[C@H]1CN(c2ccc(N3CCC(=CC=NO)CC3)c(F)c2)C(=O)O1 in your reply.
Completion: 8

Data origin, for the record: patent US20040087633A1
